# assayed system: Thermus-derived TyrRS (Thermus thermophilus, UniProt P83453)
# Construct: host or cells: Escherichia coli BL21 (DE3)
# Sequence (P83453 whole entry): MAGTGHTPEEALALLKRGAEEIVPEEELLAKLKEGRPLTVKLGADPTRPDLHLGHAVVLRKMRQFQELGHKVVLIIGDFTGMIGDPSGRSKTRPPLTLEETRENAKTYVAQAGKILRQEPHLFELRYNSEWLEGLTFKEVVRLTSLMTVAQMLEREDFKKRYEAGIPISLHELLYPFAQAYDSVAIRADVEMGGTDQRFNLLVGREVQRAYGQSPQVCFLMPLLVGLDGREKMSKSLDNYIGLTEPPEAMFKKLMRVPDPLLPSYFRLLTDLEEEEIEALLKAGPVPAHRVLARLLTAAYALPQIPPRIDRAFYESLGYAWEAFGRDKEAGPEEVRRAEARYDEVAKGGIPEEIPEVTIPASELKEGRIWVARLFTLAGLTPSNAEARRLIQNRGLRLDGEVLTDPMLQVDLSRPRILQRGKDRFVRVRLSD
# experiment description: Qualitative test of AARS substrate specificity (AARS activity at 70° C.)
# Format: biochemical, Thermus thermophilus HB8 strain
# Set-up: key: +: Activity was detected; −: Activity was not detected
# condition label: amino acids 200 μM, hydroxylamine 400 mM
measure: Detection of the activity (pyrophosphate production), TyrRS (Thermus)

>  <structure smiles>
CC[C@H](C)[C@H](N)C(=O)O

>  <result>
−

$$$$
>  <structure smiles>
N[C@@H](CO)C(=O)O

>  <result>
−

$$$$
>  <structure smiles>
C[C@H](N)C(=O)O

>  <result>
−

$$$$
>  <structure smiles>
N[C@@H](Cc1c[nH]cn1)C(=O)O

>  <result>
−

$$$$
>  <structure smiles>
N[C@@H](Cc1ccccc1)C(=O)O

>  <result>
−

$$$$
>  <structure smiles>
NCCCC[C@H](N)C(=O)O

>  <result>
−

$$$$

###

# assayed system: Thermotoga-derived ProRS (Thermotoga maritima, UniProt Q9WYY4)
# Construct: His tag (C); made in house; host or cells: Escherichia coli BL21 (DE3)
# Sequence (Q9WYY4 whole entry): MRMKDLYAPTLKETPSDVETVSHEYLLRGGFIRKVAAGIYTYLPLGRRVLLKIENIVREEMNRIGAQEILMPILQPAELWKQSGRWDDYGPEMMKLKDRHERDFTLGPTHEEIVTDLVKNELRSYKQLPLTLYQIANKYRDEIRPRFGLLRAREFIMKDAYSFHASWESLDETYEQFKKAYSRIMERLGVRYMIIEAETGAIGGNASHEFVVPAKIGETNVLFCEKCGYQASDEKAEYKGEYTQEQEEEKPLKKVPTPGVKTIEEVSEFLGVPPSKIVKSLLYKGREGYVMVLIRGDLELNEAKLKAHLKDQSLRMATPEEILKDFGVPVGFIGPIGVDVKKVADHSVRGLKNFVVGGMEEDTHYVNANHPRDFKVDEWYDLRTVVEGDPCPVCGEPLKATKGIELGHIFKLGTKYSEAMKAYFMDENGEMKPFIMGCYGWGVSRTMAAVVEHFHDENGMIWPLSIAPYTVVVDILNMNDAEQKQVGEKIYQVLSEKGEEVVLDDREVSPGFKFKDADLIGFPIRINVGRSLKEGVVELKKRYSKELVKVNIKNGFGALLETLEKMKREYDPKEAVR
# experiment description: Qualitative test of AARS substrate specificity (molybdenum blue method)
# Type: biochemical, Thermotoga maritima MSB8 strain
# Design: key: +: Activity was detected; −: Activity was not detected
# condition label: Tyr 1 mM, other amino acids 5 mM; hydroxylamine 1000 mM; ProRS 0.2 mg/ml; 30° C.
measure: Detection of the activity (pyrophosphate generation), ProRS

>  <structure smiles>
NCCCC[C@H](N)C(=O)O

>  <result>
−

$$$$
>  <structure smiles>
CC[C@H](C)[C@H](N)C(=O)O

>  <result>
−

$$$$
>  <structure smiles>
NC(=O)C[C@H](N)C(=O)O

>  <result>
−

$$$$
>  <structure smiles>
NC(=O)CC[C@H](N)C(=O)O

>  <result>
−

$$$$
>  <structure smiles>
N[C@@H](CS)C(=O)O

>  <result>
−

$$$$
>  <structure smiles>
N[C@@H](Cc1ccccc1)C(=O)O

>  <result>
−

$$$$
>  <structure smiles>
NCC(=O)O

>  <result>
−

$$$$
>  <structure smiles>
N[C@@H](CC(=O)O)C(=O)O

>  <result>
−

$$$$
>  <structure smiles>
CSCC[C@H](N)C(=O)O

>  <result>
−

$$$$
>  <structure smiles>
N[C@@H](Cc1ccc(O)cc1)C(=O)O

>  <result>
−

$$$$
>  <structure smiles>
N[C@@H](Cc1c[nH]c2ccccc12)C(=O)O

>  <result>
−

$$$$
>  <structure smiles>
CC(C)C[C@H](N)C(=O)O

>  <result>
−

$$$$
>  <structure smiles>
C[C@@H](O)[C@H](N)C(=O)O

>  <result>
−

$$$$
>  <structure smiles>
O=C(O)[C@@H]1CCCN1

>  <result>
+

$$$$
>  <structure smiles>
N[C@@H](CO)C(=O)O

>  <result>
−

$$$$
>  <structure smiles>
CC(C)[C@H](N)C(=O)O

>  <result>
−

$$$$
>  <structure smiles>
N[C@@H](CCC(=O)O)C(=O)O

>  <result>
−

$$$$
>  <structure smiles>
N=C(N)NCCC[C@H](N)C(=O)O

>  <result>
−

$$$$
>  <structure smiles>
N[C@@H](Cc1c[nH]cn1)C(=O)O

>  <result>
−

$$$$
>  <structure smiles>
C[C@H](N)C(=O)O

>  <result>
−

$$$$

# credit: patent US9708639B2
